- system-name: Human Cav 2.2 channels (Homo sapiens, UniProt Q00975)
- Sequence (Q00975 whole entry): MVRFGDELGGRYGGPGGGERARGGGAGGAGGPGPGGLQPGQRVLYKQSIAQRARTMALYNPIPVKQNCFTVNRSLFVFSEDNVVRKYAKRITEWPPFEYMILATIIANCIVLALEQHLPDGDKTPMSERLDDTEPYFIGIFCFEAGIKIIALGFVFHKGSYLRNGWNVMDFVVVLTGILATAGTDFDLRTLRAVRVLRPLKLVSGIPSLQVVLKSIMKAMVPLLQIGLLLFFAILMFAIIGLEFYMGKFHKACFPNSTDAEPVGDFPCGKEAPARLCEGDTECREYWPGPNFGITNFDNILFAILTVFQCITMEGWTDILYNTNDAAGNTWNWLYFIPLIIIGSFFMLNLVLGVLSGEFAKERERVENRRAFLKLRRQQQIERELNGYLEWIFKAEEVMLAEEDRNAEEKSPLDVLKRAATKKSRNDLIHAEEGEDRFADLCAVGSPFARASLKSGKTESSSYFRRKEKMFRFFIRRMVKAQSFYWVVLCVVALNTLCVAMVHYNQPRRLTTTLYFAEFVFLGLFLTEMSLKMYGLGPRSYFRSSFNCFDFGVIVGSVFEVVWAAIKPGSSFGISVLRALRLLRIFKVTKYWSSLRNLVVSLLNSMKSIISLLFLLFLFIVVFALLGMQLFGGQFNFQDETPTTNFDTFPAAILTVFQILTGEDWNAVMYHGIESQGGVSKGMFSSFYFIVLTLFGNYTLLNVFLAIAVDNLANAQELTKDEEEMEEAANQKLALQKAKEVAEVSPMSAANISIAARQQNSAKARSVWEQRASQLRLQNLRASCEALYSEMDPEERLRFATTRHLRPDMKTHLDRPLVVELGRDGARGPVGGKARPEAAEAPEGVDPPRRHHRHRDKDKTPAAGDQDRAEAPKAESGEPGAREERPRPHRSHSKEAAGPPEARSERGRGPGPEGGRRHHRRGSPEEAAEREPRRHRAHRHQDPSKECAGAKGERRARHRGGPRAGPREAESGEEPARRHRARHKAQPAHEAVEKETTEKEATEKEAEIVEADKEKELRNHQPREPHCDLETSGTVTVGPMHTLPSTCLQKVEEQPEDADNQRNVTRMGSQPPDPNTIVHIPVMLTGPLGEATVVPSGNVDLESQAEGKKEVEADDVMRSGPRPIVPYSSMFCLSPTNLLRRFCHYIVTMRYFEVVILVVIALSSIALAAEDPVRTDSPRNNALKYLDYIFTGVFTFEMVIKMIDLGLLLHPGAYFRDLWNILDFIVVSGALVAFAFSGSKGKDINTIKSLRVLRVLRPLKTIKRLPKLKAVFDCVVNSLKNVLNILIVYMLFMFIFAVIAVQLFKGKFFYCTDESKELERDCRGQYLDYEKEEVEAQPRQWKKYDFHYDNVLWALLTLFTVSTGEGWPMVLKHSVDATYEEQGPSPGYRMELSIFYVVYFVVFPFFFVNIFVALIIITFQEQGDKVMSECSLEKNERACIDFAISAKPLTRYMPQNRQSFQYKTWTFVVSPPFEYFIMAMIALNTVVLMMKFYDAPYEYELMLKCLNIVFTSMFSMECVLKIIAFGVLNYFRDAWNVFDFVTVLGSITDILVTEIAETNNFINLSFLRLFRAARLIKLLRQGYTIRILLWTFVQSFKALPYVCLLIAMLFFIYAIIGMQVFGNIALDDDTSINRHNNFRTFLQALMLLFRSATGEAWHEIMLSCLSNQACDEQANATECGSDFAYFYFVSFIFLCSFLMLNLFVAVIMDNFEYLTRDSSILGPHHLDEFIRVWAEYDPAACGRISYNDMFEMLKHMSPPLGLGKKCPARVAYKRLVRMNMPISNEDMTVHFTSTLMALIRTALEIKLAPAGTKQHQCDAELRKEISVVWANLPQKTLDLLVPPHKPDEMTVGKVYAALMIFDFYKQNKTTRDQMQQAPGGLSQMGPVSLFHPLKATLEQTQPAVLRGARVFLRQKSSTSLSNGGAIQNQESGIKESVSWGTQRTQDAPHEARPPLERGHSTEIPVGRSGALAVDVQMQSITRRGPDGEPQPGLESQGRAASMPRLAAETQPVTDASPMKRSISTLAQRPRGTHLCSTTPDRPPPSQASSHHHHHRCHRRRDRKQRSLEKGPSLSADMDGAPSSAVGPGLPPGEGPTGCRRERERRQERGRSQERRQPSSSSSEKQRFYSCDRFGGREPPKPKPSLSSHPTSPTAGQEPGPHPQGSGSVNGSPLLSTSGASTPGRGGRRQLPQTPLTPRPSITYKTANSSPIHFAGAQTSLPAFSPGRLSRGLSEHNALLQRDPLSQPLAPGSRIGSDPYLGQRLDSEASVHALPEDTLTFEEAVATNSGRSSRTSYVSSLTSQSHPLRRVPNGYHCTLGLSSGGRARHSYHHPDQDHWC
- Sequence (P54289 25-1103 partner): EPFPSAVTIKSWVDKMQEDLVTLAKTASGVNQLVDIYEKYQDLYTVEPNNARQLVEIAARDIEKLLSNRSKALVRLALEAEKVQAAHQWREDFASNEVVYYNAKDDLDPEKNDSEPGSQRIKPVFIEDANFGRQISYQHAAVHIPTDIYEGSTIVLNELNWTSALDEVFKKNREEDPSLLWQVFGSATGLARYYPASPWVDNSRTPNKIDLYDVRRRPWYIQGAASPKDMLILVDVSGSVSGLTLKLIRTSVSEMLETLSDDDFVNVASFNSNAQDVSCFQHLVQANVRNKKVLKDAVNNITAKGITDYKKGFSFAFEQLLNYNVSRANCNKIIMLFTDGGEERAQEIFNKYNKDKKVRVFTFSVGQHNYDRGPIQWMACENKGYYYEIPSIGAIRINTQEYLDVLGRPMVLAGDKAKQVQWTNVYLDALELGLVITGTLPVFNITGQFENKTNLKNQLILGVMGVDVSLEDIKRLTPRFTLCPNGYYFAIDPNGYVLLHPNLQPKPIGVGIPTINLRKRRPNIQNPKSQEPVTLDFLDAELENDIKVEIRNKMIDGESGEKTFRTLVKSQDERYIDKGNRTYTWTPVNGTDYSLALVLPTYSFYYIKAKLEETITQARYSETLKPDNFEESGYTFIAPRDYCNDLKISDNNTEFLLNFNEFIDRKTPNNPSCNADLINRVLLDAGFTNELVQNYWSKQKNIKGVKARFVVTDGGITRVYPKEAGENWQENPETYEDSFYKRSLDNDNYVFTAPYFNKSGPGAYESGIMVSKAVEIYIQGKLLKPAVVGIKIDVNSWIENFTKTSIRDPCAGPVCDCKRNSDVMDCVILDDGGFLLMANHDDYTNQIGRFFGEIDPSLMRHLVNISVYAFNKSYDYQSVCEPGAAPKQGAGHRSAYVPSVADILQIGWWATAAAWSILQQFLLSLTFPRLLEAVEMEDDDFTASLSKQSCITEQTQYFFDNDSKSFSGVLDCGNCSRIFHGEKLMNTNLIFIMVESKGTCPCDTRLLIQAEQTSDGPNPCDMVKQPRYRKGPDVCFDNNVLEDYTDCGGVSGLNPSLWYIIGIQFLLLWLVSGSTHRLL
- Sequence (P54284 whole entry partner): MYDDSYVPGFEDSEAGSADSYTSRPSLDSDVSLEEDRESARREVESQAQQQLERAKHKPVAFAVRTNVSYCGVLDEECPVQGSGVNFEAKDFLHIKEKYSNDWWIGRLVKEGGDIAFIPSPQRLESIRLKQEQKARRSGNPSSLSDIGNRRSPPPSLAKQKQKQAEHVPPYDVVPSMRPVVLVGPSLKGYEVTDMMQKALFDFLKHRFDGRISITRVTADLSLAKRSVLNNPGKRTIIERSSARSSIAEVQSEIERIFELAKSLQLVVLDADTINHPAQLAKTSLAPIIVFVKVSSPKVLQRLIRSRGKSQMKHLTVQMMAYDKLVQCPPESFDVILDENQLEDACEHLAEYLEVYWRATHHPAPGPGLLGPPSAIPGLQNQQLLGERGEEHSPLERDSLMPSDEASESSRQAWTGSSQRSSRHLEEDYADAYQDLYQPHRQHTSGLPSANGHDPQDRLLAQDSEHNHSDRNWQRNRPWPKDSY
- assay-notes: Fluorescent assay for CaV2.2 channels using potassium depolarization (VIPR/FLIPR)
- Type: cell-based
- details: FLIPR data; inactivated state; read-out: CAv2.2 IC50 Inact.
experimental-readout: IC50 (nM)
Please give a number only; it is taken to be in nM.

Ask: Supply IC50 value. Item: CC(C)([C@H]1C[C@@H](NC(=O)c2ncc(C(F)(F)F)cc2S(C)(=O)=O)C1)S(=O)(=O)c1cc(F)cc(C(F)(F)F)c1 [Compound 584]
Reply: 1700

Ask: Supply IC50 value. Item: CC(C)([C@H]1C[C@@H](C(=O)Nc2cc(C(F)(F)F)n[nH]2)C1)S(=O)(=O)c1cccc(C(F)(F)F)c1 [Compound 757]
Reply: 550

Ask: Supply IC50 value. Item: O=C(NC[C@H]1C[C@H](S(=O)(=O)c2cc(F)cc(C(F)(F)F)c2)C1)c1cnc(C(F)(F)F)nc1 [Compound 705]
Reply: 2470

Ask: Supply IC50 value. Item: Cc1nc(S(=O)(=O)N[C@H]2C[C@@H](C(C)(C)S(=O)(=O)c3cccc(C(F)(F)F)c3)C2)cn1C [Compound 631]
Reply: 6900

Ask: Supply IC50 value. Item: CS(=O)(=O)c1cc(Cl)ccc1C(=O)NC[C@H]1C[C@H](S(=O)(=O)c2cc(F)cc(C(F)(F)F)c2)C1 [Compound 715]
Reply: 1380

Ask: Supply IC50 value. Item: CC(C)([C@H]1C[C@H](NC(=O)c2ccc(C(F)(F)F)cn2)C1)S(=O)(=O)c1cccc(C(F)(F)F)c1 [Compound 676]
Reply: 160

Ask: Supply IC50 value. Item: CC(C)([C@H]1C[C@@H](Nc2ccnc(C(F)(F)F)n2)C1)S(=O)(=O)c1cc(F)cc(C(F)(F)F)c1 [Compound 648]
Reply: 990

Ask: Supply IC50 value. Item: CC(C)([C@H]1C[C@@H](NC(=O)c2ccc(Cl)cc2S(C)(=O)=O)C1)S(=O)(=O)c1cccc(C(F)(F)F)c1 [Compound 580]
Reply: 260

Ask: Supply IC50 value. Item: CC(C)(C1CC(CNC(=O)c2ccnc(C(F)(F)F)c2)C1)S(=O)(=O)c1cccc(C(F)(F)F)c1 (stereo not drawn) [Compound 620]
Reply: 390

Ask: Supply IC50 value. Item: CNC1(CC(=O)N[C@H]2C[C@@H](C(C)(C)S(=O)(=O)c3cccc(OC(F)(F)F)c3)C2)CCCCC1 [Compound 661]
Reply: 1530

Ask: Supply IC50 value. Item: CC(C)([C@H]1C[C@H](NC(=O)c2ccnc(C(F)(F)F)n2)C1)S(=O)(=O)c1cc(F)cc(C(F)(F)F)c1 [Compound 595]
Reply: 210

Ask: Supply IC50 value. Item: CC(C)([C@H]1C[C@@H](NC(=O)c2ccc(C(F)(F)F)nc2)C1)S(=O)(=O)c1cccc(C(F)(F)F)c1 [Compound 576]
Reply: 440

Ask: Supply IC50 value. Item: CC(C)(C[C@H]1C[C@H](NC(=O)[C@@H]2CCCC[C@@H]2N)C1)S(=O)(=O)c1cccc(C(F)(F)F)c1 [Compound 727]
Reply: 950

Ask: Supply IC50 value. Item: O=C(NC[C@H]1C[C@H](S(=O)(=O)c2cccc(Cl)c2)C1)c1ccc(C(F)(F)F)cc1 [Compound 771]
Reply: 2010

Ask: Supply IC50 value. Item: CC(C)([C@H]1C[C@H](NS(=O)(=O)c2ccc(OC(F)(F)F)cc2)C1)S(=O)(=O)c1cc(F)cc(C(F)(F)F)c1 [Compound 610]
Reply: 1130

Ask: Supply IC50 value. Item: CC(C)([C@H]1C[C@H](NC(=O)c2ncc(C(F)(F)F)cc2S(C)(=O)=O)C1)S(=O)(=O)c1cccc(OC(F)(F)F)c1 [Compound 637]
Reply: 580

Ask: Supply IC50 value. Item: Cn1nc(C(F)(F)F)cc1NC(=O)[C@H]1C[C@H](C(C)(C)S(=O)(=O)c2cccc(C(F)(F)F)c2)C1 [Compound 769]
Reply: 340

Ask: Supply IC50 value. Item: CC(C)([C@H]1C[C@@H](CNC(=O)c2ccc(Cl)c(OC(F)(F)F)c2)C1)S(=O)(=O)c1cccc(C(F)(F)F)c1 [Compound 688]
Reply: 220

Ask: Supply IC50 value. Item: CC(C)([C@H]1C[C@H](NS(=O)(=O)c2ccc(Cl)c(F)c2)C1)S(=O)(=O)c1cccc(C(F)(F)F)c1 [Compound 665]
Reply: 800

Ask: Supply IC50 value. Item: CC(C)([C@H]1C[C@@H](NC(=O)c2ccc(F)c(Cl)c2)C1)S(=O)(=O)c1cccc(OC(F)(F)F)c1 [Compound 641]
Reply: 250

Ask: Supply IC50 value. Item: CC(C)(C[C@H]1C[C@H](NC(=O)CC2(N)CCCCC2)C1)S(=O)(=O)c1cccc(C(F)(F)F)c1 [Compound 726]
Reply: 900

###

- system-name: T-type calcium channel (Homo sapiens)
- assay-notes: T-type channel blocking, FLIPR data (Table 6)
- Assay type: cell-based
- details: CAv3.2, inactivated state, read-out: CAv3.2 IC50 Inact.
experimental-readout: log10 of IC50 (log10 of the value in µM)
Transform log10 | Measure IC50 | Unit µM

Ask: Supply log10 of IC50 value. Item: O=C(NC[C@H]1C[C@H](S(=O)(=O)c2cc(F)cc(C(F)(F)F)c2)C1)c1ccc(C(F)(F)F)cc1
Reply: 0.14

Ask: Supply log10 of IC50 value. Item: CC(C)S(=O)(=O)c1cc(C(F)(F)F)cnc1C(=O)N[C@H]1C[C@@H](C(C)(C)S(=O)(=O)c2cc(F)cc(C(F)(F)F)c2)C1
Reply: 1.00

Ask: Supply log10 of IC50 value. Item: O=C(NC[C@H]1C[C@H](S(=O)(=O)c2cccc(OC(F)(F)F)c2)C1)c1ccc(C(F)(F)F)nc1
Reply: 0.75

Ask: Supply log10 of IC50 value. Item: CC(C)([C@H]1C[C@H](CNc2ccc(F)c(Cl)c2)C1)S(=O)(=O)c1cccc(C(F)(F)F)c1
Reply: -0.13

Ask: Supply log10 of IC50 value. Item: CC(C)([C@H]1C[C@@H](NC(=O)CC2(N)CCCCC2)C1)S(=O)(=O)c1cccc(C(F)(F)F)c1
Reply: 1.00

Ask: Supply log10 of IC50 value. Item: CC(C)([C@H]1C[C@@H](NS(=O)(=O)c2ccc(C(F)(F)F)cc2)C1)S(=O)(=O)c1cccc(C(F)(F)F)c1
Reply: 0.35

Ask: Supply log10 of IC50 value. Item: CC(C)(C[C@H]1C[C@H](NC(=O)[C@@H]2CCCC[C@@H]2N)C1)S(=O)(=O)c1cccc(C(F)(F)F)c1
Reply: 1.00

Ask: Supply log10 of IC50 value. Item: CC(C)([C@H]1C[C@@H](NC(=O)c2ncc(C(F)(F)F)cn2)C1)S(=O)(=O)c1cccc(C(F)(F)F)c1
Reply: 1.00

Ask: Supply log10 of IC50 value. Item: CC(C)([C@H]1C[C@H](NC(=O)c2ccc(Cl)cn2)C1)S(=O)(=O)c1cccc(C(F)(F)F)c1
Reply: 0.64

Ask: Supply log10 of IC50 value. Item: Cn1nc(C(F)(F)F)cc1NC(=O)[C@H]1C[C@H](C(C)(C)S(=O)(=O)c2cccc(C(F)(F)F)c2)C1
Reply: 0.58

Ask: Supply log10 of IC50 value. Item: CC(C)(C[C@H]1C[C@H](NC(=O)[C@H]2CCCC[C@H]2N)C1)S(=O)(=O)c1cccc(C(F)(F)F)c1
Reply: 1.00

Ask: Supply log10 of IC50 value. Item: CS(=O)(=O)c1cc(Cl)ccc1C(=O)NC[C@H]1C[C@H](S(=O)(=O)c2cc(F)cc(C(F)(F)F)c2)C1
Reply: 0.88

Ask: Supply log10 of IC50 value. Item: CC(C)([C@H]1C[C@H](C(=O)NCc2ccc(Oc3ccccc3)cc2)C1)S(=O)(=O)c1cccc(C(F)(F)F)c1
Reply: -0.37

Ask: Supply log10 of IC50 value. Item: O=C(NC[C@H]1C[C@H](S(=O)(=O)c2cc(F)cc(C(F)(F)F)c2)C1)c1ccnc(C(F)(F)F)n1
Reply: 1.00

Ask: Supply log10 of IC50 value. Item: N[C@@H]1CCCC[C@@H]1C(=O)NC[C@H]1C[C@H](S(=O)(=O)c2cc(F)cc(C(F)(F)F)c2)C1 (single isomer, unassigned)
Reply: 1.00

Ask: Supply log10 of IC50 value. Item: CC(C)([C@H]1C[C@H](NC(=O)CC2(N)CCCCC2)C1)S(=O)(=O)c1cc(F)cc(C(F)(F)F)c1
Reply: 1.00
